pKi: −log10 of the molar value.
Observed pKi for Sigma non-opioid intracellular receptor 1 (Cavia porcellus, UniProt Q60492), reported per entry below.
READOUT: pKi

structure_notation=O=S(=O)(Cc1ccccc1)N1CCN(Cc2ccccc2)CC1 reported_result=7.95
structure_notation=O=S(=O)(/C=C/c1ccc(Br)cc1)N1CCC(Cc2ccccc2)CC1 reported_result=6.07
structure_notation=O=S(=O)(Cc1cccc(Cl)c1)N1CCC(Cc2ccccc2)CC1 reported_result=7.40
structure_notation=O=S(=O)(/C=C/c1ccc(Br)cc1)N1CCN(Cc2ccccc2)CC1 reported_result=5.97

====

target: Sigma non-opioid intracellular receptor 1 (Cavia porcellus, UniProt Q60492)
Sequence (Q60492 whole entry): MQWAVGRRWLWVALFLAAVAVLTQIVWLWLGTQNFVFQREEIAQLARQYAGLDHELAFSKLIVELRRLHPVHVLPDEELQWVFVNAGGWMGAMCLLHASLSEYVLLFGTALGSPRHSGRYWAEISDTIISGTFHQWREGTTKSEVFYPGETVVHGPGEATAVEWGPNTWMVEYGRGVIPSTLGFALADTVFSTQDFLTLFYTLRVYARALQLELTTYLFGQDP
Please use the following Ki ranges when assigning a class: bucket A = under 5 nM, bucket B = from 5 nM up to 40 nM, bucket C = 40 nM and over

structure_notation=O=S(=O)(CCc1ccccc1)N1CCN(Cc2ccccc2)CC1 category_label="bucket C"
structure_notation=O=S(=O)(/C=C/c1ccccc1)N1CCC(Cc2ccccc2)CC1 category_label="bucket C"
structure_notation=O=S(=O)(Cc1ccccc1)N1CCN(Cc2cccc(I)c2)CC1 category_label="bucket A"
structure_notation=Cc1cccc(CS(=O)(=O)N2CCC(Cc3ccccc3)CC2)c1 category_label="bucket A"
structure_notation=OC[C@@H]1CN(CCc2ccccc2)CCN1Cc1ccccc1 category_label="bucket B"
structure_notation=c1ccc(CCCN2CCC(Cc3ccccc3)CC2)cc1 category_label="bucket A"
structure_notation=O=S(=O)(Cc1ccccc1)N1CCC(Cc2ccccc2)CC1 category_label="bucket B"
structure_notation=O=S(=O)(c1ccc(Cl)cc1)N1CCC(Cc2ccccc2)CC1 category_label="bucket C"
structure_notation=Cc1cccc(CN2CCN(S(=O)(=O)Cc3ccccc3)CC2)c1 category_label="bucket B"
structure_notation=c1ccc(CCCN2CCN(Cc3ccccc3)CC2)cc1 category_label="bucket B"
structure_notation=Cc1cccc(CS(=O)(=O)N2CCN(Cc3ccccc3)CC2)c1 category_label="bucket B"
structure_notation=O=S(=O)(Cc1cccc(I)c1)N1CCC(Cc2ccccc2)CC1 category_label="bucket A"

====

pKi: −log10 of the molar value.
// each record: one item and its pKi for Sigma non-opioid intracellular receptor 1 (Cavia porcellus)
READOUT: pKi

structure_notation=O=S(=O)(c1ccccc1)N1CCC(Cc2ccccc2)CC1 reported_result=7.61
structure_notation=O=S(=O)(c1ccccc1)N1CCN(Cc2ccccc2)CC1 reported_result=7.55
structure_notation=O=S(=O)(/C=C/c1ccccc1)N1CCN(Cc2ccccc2)CC1 reported_result=6.70
structure_notation=O=S(=O)(Cc1cccc(Cl)c1)N1CCN(Cc2ccccc2)CC1 reported_result=7.17
structure_notation=O=S(=O)(Cc1ccccc1)N1CCN(Cc2ccc(Br)cc2)CC1 reported_result=7.87
structure_notation=COc1ccc(CN2CCN(S(=O)(=O)Cc3ccccc3)CC2)cc1 reported_result=6.72

====

assay: Displacement of [3H]DTG from sigma2 receptor in Sprague-Dawley rat liver membrane after 150 mins by liquid scintillation counting analysis; assay type: cell membranes
pKi: −log10 of the molar value.
Each entry gets Condition not met if its pKi stays under 7, and Condition met if its pKi is 7 or above.

structure_notation=O=S(=O)(/C=C/c1ccc(Br)cc1)N1CCC(Cc2ccccc2)CC1 category_label="Condition not met"
structure_notation=O=S(=O)(c1ccc(Cl)cc1)N1CCN(Cc2ccccc2)CC1 category_label="Condition not met"
structure_notation=Cc1cccc(CS(=O)(=O)N2CCC(Cc3ccccc3)CC2)c1 category_label="Condition met"
structure_notation=O=S(=O)(/C=C/c1ccccc1)N1CCC(Cc2ccccc2)CC1 category_label="Condition not met"
structure_notation=Cc1ccccc1NC(=N)Nc1ccccc1C category_label="Condition met"
structure_notation=O=S(=O)(Cc1ccccc1)N1CCN(Cc2ccc(Br)cc2)CC1 category_label="Condition not met"
structure_notation=O=S(=O)(c1ccc(Cl)cc1)N1CCC(Cc2ccccc2)CC1 category_label="Condition not met"
structure_notation=COc1ccc(CN2CCN(S(=O)(=O)Cc3ccccc3)CC2)cc1 category_label="Condition not met"
structure_notation=O=S(=O)(CCc1ccccc1)N1CCN(Cc2ccccc2)CC1 category_label="Condition not met"

====

biological target: Sigma non-opioid intracellular receptor 1 (Cavia porcellus)
pKi: −log10 of the molar value.
// reported pKi for each item listed
READOUT: pKi

structure_notation=O=S(=O)(c1ccc(Cl)cc1)N1CCN(Cc2ccccc2)CC1 system="Sigma non-opioid intracellular receptor 1 (Cavia porcellus)" readout=pKi reported_result=6.01
structure_notation=O=S(=O)(Cc1cccc(I)c1)N1CCN(Cc2ccccc2)CC1 system="Sigma non-opioid intracellular receptor 1 (Cavia porcellus)" readout=pKi reported_result=8.57
structure_notation=O=S(=O)(Cc1cccc(Br)c1)N1CCC(Cc2ccccc2)CC1 system="Sigma non-opioid intracellular receptor 1 (Cavia porcellus)" readout=pKi reported_result=8.80
structure_notation=O=S(=O)(Cc1ccccc1)N1CCN(Cc2cccc(F)c2)CC1 system="Sigma non-opioid intracellular receptor 1 (Cavia porcellus)" readout=pKi reported_result=7.16
structure_notation=O=S(=O)(Cc1ccccc1)N1CCN(Cc2cccc(Cl)c2)CC1 system="Sigma non-opioid intracellular receptor 1 (Cavia porcellus)" readout=pKi reported_result=7.29
structure_notation=O=S(=O)(Cc1cccc(Br)c1)N1CCN(Cc2ccccc2)CC1 system="Sigma non-opioid intracellular receptor 1 (Cavia porcellus)" readout=pKi reported_result=7.52

====

test: Displacement of [3H]DTG from sigma2 receptor in Sprague-Dawley rat liver membrane after 150 mins by liquid scintillation counting analysis; type: cell membranes
Label 1 when Ki < 50 nM; otherwise 0.

molecule=O=S(=O)(Cc1ccccc1)N1CCN(Cc2ccccc2)CC1 category_label=1
molecule=O=S(=O)(Cc1ccccc1)N1CCC(Cc2ccccc2)CC1 category_label=1
molecule=O=C(CCCN1CCC(O)(c2ccc(Cl)cc2)CC1)c1ccc(F)cc1 category_label=1
molecule="CC(C)=CCN1CC[C@]2(C)c3cc(O)ccc3C[C@H]1[C@H]2C [(+)-PENTAZOCINE]" category_label=0
molecule=O=S(=O)(/C=C/c1ccc(Br)cc1)N1CCN(Cc2ccccc2)CC1 category_label=0

====

test: Binding affinity to sigma receptor (unknown origin); parameters: species or system Homo sapiens
READOUT: Ki (nM)

structure_notation=Clc1ccc(/C=C/CN2CCN(Cc3ccccc3)CC2)cc1 reported_result=0.3

====

Listing: Ki of selected compounds
assay: Displacement of [3H]DTG from sigma2 receptor in Sprague-Dawley rat liver membrane after 150 mins by liquid scintillation counting analysis; format: cell membranes
READOUT: Ki

structure_notation=O=S(=O)(Cc1cccc(Cl)c1)N1CCC(Cc2ccccc2)CC1 readout=Ki reported_result="199 nM"
structure_notation=c1ccc(CCCN2CCC(Cc3ccccc3)CC2)cc1 readout=Ki reported_result="3.3 nM"
structure_notation=O=S(=O)(/C=C/c1ccccc1)N1CCN(Cc2ccccc2)CC1 readout=Ki reported_result="8140 nM"
structure_notation=O=S(=O)(Cc1cccc(Br)c1)N1CCN(Cc2ccccc2)CC1 readout=Ki reported_result="148 nM"
structure_notation=O=S(=O)(Cc1ccccc1)N1CCN(Cc2cccc(I)c2)CC1 readout=Ki reported_result="117 nM"
structure_notation=O=S(=O)(c1ccccc1)N1CCC(Cc2ccccc2)CC1 readout=Ki reported_result="56.7 nM"
structure_notation=O=S(=O)(Cc1ccccc1)N1CCN(Cc2cccc(Cl)c2)CC1 readout=Ki reported_result="174 nM"
structure_notation=O=S(=O)(Cc1ccccc1)N1CCN(Cc2cccc(F)c2)CC1 readout=Ki reported_result="181 nM"
structure_notation=O=S(=O)(Cc1cccc(I)c1)N1CCC(Cc2ccccc2)CC1 readout=Ki reported_result="91.8 nM"
structure_notation=O=S(=O)(c1ccccc1)N1CCN(Cc2ccccc2)CC1 readout=Ki reported_result="87.1 nM"
structure_notation=O=S(=O)(CCc1ccccc1)N1CCC(Cc2ccccc2)CC1 readout=Ki reported_result="187 nM"

====

Listing: Ki of selected molecules
assay: Displacement of [3H]DTG from sigma2 receptor in Sprague-Dawley rat liver membrane after 150 mins by liquid scintillation counting analysis; format: cell membranes
READOUT: Ki (nM)

structure_notation=OC[C@@H]1CN(CCc2ccccc2)CCN1Cc1ccccc1 unit_tag=nM reported_result=177
structure_notation=c1ccc(CN2CCN(Cc3ccccc3)CC2)cc1 unit_tag=nM reported_result=1270
structure_notation=Cc1cccc(CN2CCN(S(=O)(=O)Cc3ccccc3)CC2)c1 unit_tag=nM reported_result=151
structure_notation=O=S(=O)(Cc1cccc(I)c1)N1CCN(Cc2ccccc2)CC1 unit_tag=nM reported_result=88.8
structure_notation=O=S(=O)(Cc1cccc(Br)c1)N1CCC(Cc2ccccc2)CC1 unit_tag=nM reported_result=25.9
